- targetOrSystem: human FGFR1c + KLB receptor complex on HEK293 iLite FGF21 reporter cells (human, UniProt P11362 22-822; Q86Z14 1-1044)
- Sequence (P11362 22-822, chain 1 of 2): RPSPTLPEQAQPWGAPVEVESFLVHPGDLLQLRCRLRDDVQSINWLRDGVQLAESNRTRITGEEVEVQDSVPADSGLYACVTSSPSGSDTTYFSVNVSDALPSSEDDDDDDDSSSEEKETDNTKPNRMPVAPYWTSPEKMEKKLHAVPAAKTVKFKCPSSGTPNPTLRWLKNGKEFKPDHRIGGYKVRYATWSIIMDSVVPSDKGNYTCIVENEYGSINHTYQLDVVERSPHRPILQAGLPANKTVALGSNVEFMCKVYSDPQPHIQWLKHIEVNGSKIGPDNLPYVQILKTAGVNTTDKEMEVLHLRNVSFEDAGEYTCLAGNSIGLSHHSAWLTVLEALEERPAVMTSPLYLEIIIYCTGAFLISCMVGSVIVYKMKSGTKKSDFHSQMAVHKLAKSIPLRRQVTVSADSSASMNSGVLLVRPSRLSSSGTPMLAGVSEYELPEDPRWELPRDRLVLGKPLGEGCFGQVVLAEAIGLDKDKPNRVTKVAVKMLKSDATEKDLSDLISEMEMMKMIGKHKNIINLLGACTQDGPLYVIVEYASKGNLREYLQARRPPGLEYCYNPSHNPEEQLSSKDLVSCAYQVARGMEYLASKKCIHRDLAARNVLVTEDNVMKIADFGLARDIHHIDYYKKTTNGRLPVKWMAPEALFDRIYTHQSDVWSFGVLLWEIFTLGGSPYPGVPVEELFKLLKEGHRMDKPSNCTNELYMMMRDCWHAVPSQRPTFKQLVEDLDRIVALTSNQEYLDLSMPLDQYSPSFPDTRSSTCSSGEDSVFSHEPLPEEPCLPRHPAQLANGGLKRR
- Sequence (Q86Z14 whole entry, chain 2 of 2): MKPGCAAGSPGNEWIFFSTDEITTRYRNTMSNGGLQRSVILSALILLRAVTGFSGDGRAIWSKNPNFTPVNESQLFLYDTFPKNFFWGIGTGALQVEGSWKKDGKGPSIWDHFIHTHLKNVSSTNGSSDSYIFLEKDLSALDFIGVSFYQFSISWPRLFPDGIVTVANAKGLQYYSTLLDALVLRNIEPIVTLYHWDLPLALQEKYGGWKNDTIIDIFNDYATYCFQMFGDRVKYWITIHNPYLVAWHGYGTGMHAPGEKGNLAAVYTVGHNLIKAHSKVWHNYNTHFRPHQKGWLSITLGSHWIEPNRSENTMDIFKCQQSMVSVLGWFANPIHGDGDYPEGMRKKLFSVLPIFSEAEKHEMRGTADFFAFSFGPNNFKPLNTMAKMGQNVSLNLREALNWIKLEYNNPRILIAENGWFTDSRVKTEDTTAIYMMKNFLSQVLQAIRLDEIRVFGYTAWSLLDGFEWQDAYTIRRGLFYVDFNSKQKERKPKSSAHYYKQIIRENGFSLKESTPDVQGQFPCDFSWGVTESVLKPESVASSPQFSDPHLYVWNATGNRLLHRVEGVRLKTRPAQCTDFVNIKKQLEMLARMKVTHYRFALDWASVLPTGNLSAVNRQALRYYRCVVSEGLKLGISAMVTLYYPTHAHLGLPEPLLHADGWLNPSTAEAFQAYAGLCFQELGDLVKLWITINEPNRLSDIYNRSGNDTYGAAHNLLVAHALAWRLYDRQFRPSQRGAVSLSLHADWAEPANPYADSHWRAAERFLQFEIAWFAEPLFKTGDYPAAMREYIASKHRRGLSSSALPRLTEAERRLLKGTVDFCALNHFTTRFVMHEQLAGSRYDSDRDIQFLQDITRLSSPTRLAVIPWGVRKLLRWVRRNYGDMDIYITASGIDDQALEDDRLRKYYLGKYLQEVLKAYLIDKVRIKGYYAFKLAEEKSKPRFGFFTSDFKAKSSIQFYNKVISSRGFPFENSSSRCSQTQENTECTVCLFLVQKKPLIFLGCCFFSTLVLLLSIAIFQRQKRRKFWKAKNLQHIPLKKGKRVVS
- assayName: cell-based or functional assay
measuredProperty: EC50 (nM)
Lab book: enter the figure in nM, no units written.

Ab0336 (antibody, IgG4, V domains shown) VH: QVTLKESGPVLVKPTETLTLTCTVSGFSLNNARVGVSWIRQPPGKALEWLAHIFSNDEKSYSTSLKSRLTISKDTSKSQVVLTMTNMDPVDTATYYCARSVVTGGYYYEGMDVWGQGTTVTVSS VL: SYVLTQPPSVSVAPGQTARITCGGSNIGSESVHWYQQKPGQAPVLVVYSHSDRPSGIPERFSGSNSGNTATLTISRVEAGDEADYYCQVWAGSSDHVVFGGGTKLTVLG	2.91

Next binder, EC50 to be filled in.
-- ask Answer with the recorded EC50 of Ab0339 (antibody, IgG4, V domains shown) VH: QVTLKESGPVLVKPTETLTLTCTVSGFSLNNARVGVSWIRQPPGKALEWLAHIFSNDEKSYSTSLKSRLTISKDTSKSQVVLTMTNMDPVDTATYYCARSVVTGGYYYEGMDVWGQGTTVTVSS VL: SYVLTQPPSVSVAPGQTARITCGGSNIGSESVHWYQQKPGQAPVLVVYAESDRPSGIPERFSGSNSGNTATLTISRVEAGDEADYYCQVWAGSSDHVVFGGGTKLTVLG only.
-- reply 2.16
